These measurements were taken from patent US10329302B2.

Test system: serum TNF
Test: In Vivo Mouse LPS/D-Gal Challenge Model
Conditions: oral, Dose 30 mpk
Below: a set of entries, each annotated with reported % inhib TNF.
Give your result in % as a bare value.

{"smiles structure": "COc1cc2c(OC[C@H]3NC(=O)[C@@H](F)[C@H]3C)nccc2cc1C(N)=O", "parameter measured": "% inhib TNF", "endpoint value": 40}
{"smiles structure": "COc1cc2c(OC[C@@H]3CCC(=O)N3)cccc2cc1C(N)=O", "parameter measured": "% inhib TNF", "endpoint value": 55}

Here is the next item to consider.
Recorded % inhib TNF for COc1cc2c(OC[C@@H]3C[C@](C)(F)C(=O)N3)cccc2cc1C(N)=O , please?
76
